# OD listing for each entry below
target: T1, simian antithrombin (simian); assay: ELISA, sdAb coated, plasma 1/4, bound antithrombin probed with polyclonal anti-antithrombin; grade by OD
T1 construct: Native protein in plasma diluted 1/4; also called simian AT; antithrombin in simian plasma

Binder	OD
KB-AT-006 (VHH, Monovalent anti-antithrombin single-domain antibody; also called sdAb KB-AT-006) VHH: QVQLQQSGGGLVQAGGSLRLSCAASGRTFSNNGMGWFRQAPGKEREFVAAISWSSGSTYYADSVKGRYTISRDNAKNTVYLQMNSLKPEDTAVYYCAARTRYNSGYFTRNYDYWGQGTQVTVSS	≥ 0.5 od

For KB-AT-001 (VHH, Monovalent anti-antithrombin single-domain antibody; also called sdAb KB-AT-001) VHH: QVQLQQSGGDLAQRGGSLRLSCAASGRTFRNYVMGWFRQAPGKDPEFIAGINRSGAITYYGDSVKGRFTISRDNAKNTVSLQMNSLEPEDTAVYYCAAGETTWSIRRDDYDYWGQGTQVTVSS the binder record lists OD as ≥ 0.5 od

Data point: KB-AT-004 (VHH, Monovalent anti-antithrombin single-domain antibody; also called sdAb KB-AT-004) VHH: VQLQQSGGGLVQPGGSLRLSCAASAMTFSIRAWAWYRQAPGKQRELVASIGTGDITNYADSVKGRFTISRDNAKNTFYLQMNSLKPEDTAVYYCNGYRSTYAWGQGTQVTVSS ; OD = 0.1 to 0.5 od
